# assay.explanation: chemical genetic growth profiling, strain panel (AID 1159580);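 further: tested at 20 µM; growth read once vehicle control cultures reached saturation at 30 °C; 1 = growth at the plate median or of vehicle wells; lower values mean less growth of the strain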
# run.parameters: S. cerevisiae deletion strains, growth OD, locus YHR087W, strain rtc3, hits give low values
Out of some 5,500 compounds screened, about 2,000 (36%) were called active. Not shown: some 18% with an inconclusive outcome. The list shows a part of the results.
measurement.type: normalized growth

compound: CCOC(=O)C(=CNc1ccccc1N1CCOCC1)C(=O)OCC
normalized growth: 0.999 (inactive)
//
compound: Cc1cccc(C)c1NC(=O)C(C)Oc1ccc(Cl)cc1Cl (stereo not given)
normalized growth: 1.01 (inactive)
//
compound: CCOC(=O)C(=CNNC(=O)c1ccccc1-n1cccc1)C(=O)OCC
normalized growth: 0.974 (inactive)
//
compound: N#CCOc1ccc(Cl)cc1Cl
normalized growth: 0.977 (inactive)

Kindly consider the entry below.
Which normalized growth reading was recorded for the compound CC12CCC3C(CCC4=CC(=O)CCC43CO)C1CCC2OC(=O)c1ccccc1 (stereo not given) ?
1.01 (inactive)

---

# assay.explanation: chemical genetic growth profiling, strain panel (AID 1159580)
# run.parameters: S. cerevisiae deletion strains, growth OD, locus YJR075W, strain HOC1
Screen size: about 5,500 compounds; about 2,000 (36%) were called active. Another 18% or so got no clear call; they are omitted. Cut-off read from the data, not from the text of the source: active = normalized growth mostly below about 0.91 (no sharp cut-off); inconclusive = no clear call, values can overlap the other calls; inactive = mostly above about 0.92. This is one part of the list.
Please answer using one outcome listed in Y for active, N for inactive

Consider the worked cases shown below.
compound: CCCCCCCCCCCCCCCC[N+](C)(C)C
group.label: Y

compound: CN1CCc2c(cc(O)c(O)c2Cl)C(c2cccc(Cl)c2)C1 (stereo not given)
group.label: Y

compound: CCOC(=O)CCC(=O)O[C@H]1[C@H](O[C@@H]2[C@@H](C)[C@H](O[C@H]3C[C@@](C)(OC)[C@@H](O)[C@H](C)O3)[C@@H](C)C(=O)O[C@H](CC)[C@@](C)(O)[C@H](O)[C@@H](C)C(=O)[C@H](C)C[C@@]2(C)O)O[C@H](C)C[C@@H]1N(C)C
group.label: N

compound: COCc1nc2c([nH]1)c(=O)n(C)c(=O)n2CC(C)C
group.label: N

compound: CCC(C)C(=O)O[C@H]1[C@H](O)C2C(CN3CC(C)CCC3[C@@]2(C)O)C2C[C@]34O[C@]5(O)C(OC(=O)C(C)(O)C(C)O)CC[C@@]3(C)C5C(OC(C)=O)[C@@H](OC(C)=O)C4[C@@]21O (stereo not given in full)
group.label: N

compound: C[N+](C)(C)CCOC(N)=O
group.label: N

Could you kindly confirm the outcome this assay logged for CN(C)c1ccc(C(=O)NN)cc1 ?
N

Tell me the assay call for COc1cc(C(F)(F)F)cc(C(F)(F)F)c1C(=O)Nc1cc(C(F)(F)F)cc(C(F)(F)F)c1 please.
N

What was the test verdict on O=C1C=CC(=C(c2ccc(O)cc2)c2ccc(O)cc2)C=C1 ?
N

---

# assay.explanation: chemical genetic growth profiling, strain panel (AID 1159580)
# run.parameters: S. cerevisiae deletion strains, growth OD, locus YPL051W, strain arl3
Among all 5,500 compounds or so, about 2,000 (36%) were called active. Another 18% or so got no clear call; they are omitted. Cut-off read from the data, not from the text of the source: active = normalized growth mostly below about 0.91 (no sharp cut-off); inconclusive = no clear call, values can overlap the other calls; inactive = mostly above about 0.92. This is one part of the list.
I would appreciate it if you answered using one of these outcomes: true (active), false (inactive)

Hey, what did the test say about CCOC(=O)C(Cc1ccc(O)cc1)NC(C)=O (configuration not stated) ?
false

What is the recorded call for this compound in the test? CCOC(=O)c1c(C)cc(O)c(C=O)c1O
true

Answer briefly: the call reported for Cc1[nH]c(C)c(Cl)c(=O)c1Cl in this assay.
false

---

# assay.explanation: chemical genetic growth profiling, strain panel (AID 1159580)
# run.parameters: S. cerevisiae deletion strains, growth OD, locus YDL005C, strain med2
Out of some 5,500 compounds screened, about 2,000 (36%) were called active. Inconclusive results (about 18%) are left out. Cut-off read from the data, not from the text of the source: active = normalized growth mostly below about 0.91 (no sharp cut-off); inconclusive = no clear call, values can overlap the other calls; inactive = mostly above about 0.92. The list shows a part of the results.
Valid outcomes are listed here; reply with one: active, inactive

molecule: O=C(O)C1(O)C[C@@H](O)C(O)[C@H](O)C1 (stereo partly specified)
group.label: inactive
--
molecule: COc1ccc2c(c1)O[C@@H]1COc3cc(OC)c(OC)cc3[C@@H]1C2=O
group.label: inactive
--
molecule: CC(C)OC(=O)C(C)(C)Oc1ccc(C(=O)c2ccc(Cl)cc2)cc1
group.label: inactive
--
molecule: CN(C)c1ccc(C(=C2C=CC(=[N+](C)C)C=C2)c2ccc(N(C)C)cc2)cc1
group.label: active
--
molecule: C=C1C2CC[C@H]3[C@]4(C)C[C@H](OC5OC(CO)C(OS(=O)(=O)O)C(OS(=O)(=O)O)C5OC(=O)CC(C)C)C[C@@H](C(=O)O)[C@H]4CC[C@]3(C2)[C@H]1O (stereo partly specified)
group.label: inactive

I'd appreciate the recorded outcome for c1cncc(C2CCCCN2)c1 (stereo unspecified) from this test.
inactive

Please state the recorded outcome for this molecule: COc1cc2c(cc1OC)[C@@H]1C(=O)c3ccc(OC)c(CC=C(C)C)c3O[C@@H]1CO2
inactive

Which outcome was assigned to CC(Oc1ccccc1)C(=O)N[C@@H]1C(=O)N2[C@@H]1SC(C)(C)[C@@H]2C(=O)O (stereo partly specified) in this test?
inactive

So what was the verdict on COCCc1ccc(OCC(O)CNC(C)C)cc1 (stereo unspecified) in this test?
inactive

Which outcome was assigned to CS(=O)(=O)c1ccc(C2=C(c3ccccc3)C(=O)OC2)cc1 in this test?
inactive

Record lookup: outcome of this test for CCOC(=O)C(Cc1ccc(O)cc1)NC(C)=O (stereo unspecified) ?
inactive

---

# assay.explanation: chemical genetic growth profiling, strain panel (AID 1159580);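 further: tested at 20 µM; growth read once vehicle control cultures reached saturation at 30 °C; 1 = growth at the plate median or of vehicle wells; lower values mean less growth of the strain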
# run.parameters: S. cerevisiae deletion strains, growth OD, locus YJR075W, strain HOC1, hits give low values
Screen size: about 5,500 compounds; about 2,000 (36%) were called active. Another 18% or so got no clear call; they are omitted. Some of the results follow.
Entries whose normalized growth is below 1 take condition met; entries at or above 1 take condition not met.

Reference set (2 entries):
compound: C=C(C)C1CNC(C(=O)O)C1CC(=O)O (configuration not stated)
group.label: condition not met
//
compound: Clc1cccc(Cl)c1CSC1=NCCCN1C1CCCCC1
group.label: condition not met

Please check: normalized growth for Nc1nc2ccc(OC(F)(F)F)cc2s1 , strictly under 1 or not?
condition met

Field: below-cutoff. Rule: recorded normalized growth strictly less than 1. Subject: CC(C)(C)c1ccc(NC(=O)Cc2cc(F)cc(F)c2)cc1
condition met

---

# assay.explanation: chemical genetic growth profiling, strain panel (AID 1159580);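 further: tested at 20 µM; growth read once vehicle control cultures reached saturation at 30 °C; 1 = growth at the plate median or of vehicle wells; lower values mean less growth of the strain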
# run.parameters: S. cerevisiae deletion strains, growth OD, locus YLR102C, strain apc9, hits give low values
Hit rate of the full screen: of about 5,500 compounds, about 2,000 (36%) were called active. Roughly 18% stayed inconclusive and do not appear here. Some of the results follow.
measurement.type: normalized growth

Solved cases below.
compound: CC1CC2C3CCC4=CC(=O)C=C[C@]4(C)[C@@]3(F)[C@@H](O)C[C@]2(C)[C@@]1(O)C(=O)CO (stereo partly drawn)
observed: 0.982 (inactive)
--
compound: CCN(CC)CCNC(=O)c1cc(Br)c(N)cc1OC
observed: 0.991 (inactive)
--
compound: CC(=O)OC(C)(C)[C@@H]1Cc2cc3ccc(=O)oc3cc2O1
observed: 1 (inactive)
--
compound: COc1ccc(OC)c(C(O)C(C)N)c1 (stereo not drawn)
observed: 0.992 (inactive)

I'd like to know its normalized growth. The compound in question is CC(C)(OC(=O)c1ccccc1)[C@@H]1Cc2cc3ccc(=O)oc3cc2O1
0.984 (inactive)

GET /values?readout=normalized growth&item= COc1ccc2cc([C@H](C)C(=O)O)ccc2c1
0.986 (inactive)

What does the record list as normalized growth for CC(C(=O)O)c1ccc(-c2ccccc2)c(F)c1 (stereo not drawn) ?
0.954 (inactive)

For the compound CC(N)CCCC(C)(C)O (stereo not drawn) , what normalized growth is on record?
1.01 (inactive)

---

Attribute: normalized growth
# assay.explanation: chemical genetic growth profiling, strain panel (AID 1159580);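 further: tested at 20 µM; growth read once vehicle control cultures reached saturation at 30 °C; 1 = growth at the plate median or of vehicle wells; lower values mean less growth of the strain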
# run.parameters: S. cerevisiae deletion strains, growth OD, locus YLR357W, strain rsc2, hits give low values
The whole screen tested about 5,500 compounds, of which about 2,000 (36%) were called active. Another 18% or so got no clear call; they are omitted. The list shows a part of the results.
// print number alone

Some entries whose results are on file:
compound: CCN(CC)CCNC(=O)c1cc(Br)c(N)cc1OC
normalized growth: 0.974
//
compound: CCOC(=O)C(=O)C1(C(=O)OCC)Oc2cc(OC)cc(OC)c2C(=O)C1c1ccccc1 (stereo not given)
normalized growth: 0.916

Please report the recorded normalized growth for O=C1C=CC(=C(c2ccc(O)cc2)c2ccc(O)cc2)C=C1 .
0.999

Give its normalized growth value. Item: CN(C)c1ccc(C(=C2C=CC(=[N+](C)C)C=C2)c2ccc(N(C)C)cc2)cc1
1.04

Look up normalized growth for this compound: NC(=O)c1ccc[n+]([C@@H]2O[C@H](COP(=O)([O-])OP(=O)(O)OC[C@H]3O[C@@H](n4cnc5c(N)ncnc54)[C@H](O)[C@@H]3O)[C@@H](O)[C@H]2O)c1
1.05
